Tested on: RPMI-8226 leukemia
Assay: NCI-60 one-dose screen, 48 h
Conditions: 10 µM
About 83,000 compounds went through this panel and 20% of them were active in at least one assay; those are over-represented in the sample as a whole. The source made the active and inactive calls. How the source made its calls: active means growth percent below 10; inactive means the rest.
Answer with one of the outcomes active, inactive

// param item: "Oc1ccc(/C=C2\CCCc3cc4ccc(O)cc4[o+]c32)c(O)c1" ; yields the recorded call
inactive

// param item: O=C(Cc1ccc2c(c1)CN(C1CCC(=O)NC1=O)C2=O)NCc1cccc2ccccc12 (stereo not drawn) ; yields the recorded call
inactive

// param item: "S=c1nc(-c2ccccc2)cc(-c2cc3ccccc3nc2Cl)[nH]1" ; yields the recorded call
inactive

// param item: "COc1ccc(-c2nc(S(=O)(=O)c3ccc(C)cc3)c(S(=O)(=O)CC(=O)N(C)Cc3ccccc3)o2)cc1" ; yields the recorded call
active

// param item: "O=c1[nH]c2ccccc2cc1CSc1ccc(Nc2nccc(-c3ccc(Cl)cc3)n2)cc1" ; yields the recorded call
inactive

// param item: "COc1ccc(C(=O)NC(=S)N2CCN(c3ncnc4c3cnn4-c3ccccc3)CC2)cc1" ; yields the recorded call
inactive

// param item: "CS(=O)(=O)Nc1ccc(-c2ccc3c(c2)ncn3-c2ccc(NC(=O)Nc3ccc(Cl)c(C(F)(F)F)c3)cc2)cc1" ; yields the recorded call
active

// param item: "COc1ccc(-c2nc(Nc3ccccc3S(N)(=O)=O)c3ccccc3n2)cc1" ; yields the recorded call
inactive

// param item: "O=C1Nc2cc(-c3ccc(NC(=O)c4cccc([N+](=O)[O-])c4)cc3)ccc2/C1=C/c1ccc[nH]1" ; yields the recorded call
inactive

// param item: "CNC(=O)c1cc(-c2ccc(NC(=O)Nc3ccc(C)cc3)cc2)nc2cccnc12" ; yields the recorded call
inactive

// param item: COc1ccc(C2N(c3ccc(Br)cc3)N=C(C(C)=O)N2[C@H]2[C@H](OC(C)=O)O[C@H](COC(C)=O)[C@@H](OC(C)=O)[C@@H]2OC(C)=O)cc1 (stereo partly drawn) ; yields the recorded call
inactive

// param item: CCOC(=O)C1=C(N)N(c2ccccc2)C2=C(C(=O)CC(C)(C)C2)C1c1ccc(Cl)cc1 (stereo not drawn) ; yields the recorded call
active

// param item: "COc1ccc(/C(C)=N/N=C2C(=O)N(C)c3ccc(Br)cc32)cc1S(N)(=O)=O" ; yields the recorded call
inactive

// param item: "O/N=C(\CSc1nnc(-c2c[nH]c3ccccc23)n1-c1ccccc1)c1ccc(Br)cc1" ; yields the recorded call
active

// param item: "COc1cc(/C=N/NC(=O)c2ccc3nc(-c4ccc(Cl)cc4)[nH]c3c2)cc(OC)c1OC" ; yields the recorded call
active

// param item: "N#Cc1ccc(-c2nn(-c3ccc(C(=O)O)cc3)cc2CNc2cccc(Br)c2)cc1" ; yields the recorded call
inactive

// param item: "COc1cc(-c2nc3cc(Cl)c(Cl)cc3[nH]2)ccc1OCc1nnc(-c2ccc(Br)cc2)o1" ; yields the recorded call
active

// param item: "Cc1cc2c(c(O)c1Br)-c1ncoc1C(=O)[C@]1(C)CC[C@H](C(C)C)[C@H]21" ; yields the recorded call
active

====

Hi there, I'd appreciate the recorded growth for every entry that follows.
Tested on: 786-0 renal
Assay: NCI-60 one-dose screen, 48 h (100 = growth as untreated, 0 = no growth, -100 = all killed)
Settings: 10 µM
About 83,000 compounds went through this panel and 20% of them were active in at least one assay; those are over-represented in the sample as a whole.
Just the number please, in %, no unit attached.

growth for 786-0 renal with input "CCCn1c(=O)c2[nH]c(-c3ccc(OCc4nc5ccc(F)cc5[nH]4)cc3)nc2n(CCC)c1=O" equals -87.2

growth for 786-0 renal with input "N#Cc1ccc(NC(=O)CSc2ccc(-c3ccc(Br)cc3)nn2)cc1" equals 80.2

growth for 786-0 renal with input "Nc1nc(Nc2ccc(Cl)cc2)n(Cc2cccc(Br)c2)n1" equals -46.8

growth for 786-0 renal with input O=C(c1ccc(Cl)cc1)C1[C@H](c2ccc(Br)cc2)[C@@H](c2ccccc2)NC12C(=O)Nc1ccc(Br)cc12 (some centres undefined) equals -80.4

growth for 786-0 renal with input "O=c1[nH]c2ccc(Cl)cc2cc1CSc1ccc(Nc2nccc(-c3ccc(Cl)cc3)n2)cc1" equals 75.2

growth for 786-0 renal with input "COc1cccc(-c2ccnc(/N=C(\N)Nc3ccc(S(=O)(=O)Nc4nc(C)cc(C)n4)cc3)n2)c1" equals 101

growth for 786-0 renal with input "Cc1ccc(S(=O)(=O)c2nc(-c3ccccc3)oc2S(=O)(=O)CC(=O)N2CCCC2)cc1" equals -57.3

growth for 786-0 renal with input "O=C(NO)c1ccc(-c2nc3ccc4[nH]ncc4c3c3c2CCCC3)cc1" equals -8.73

growth for 786-0 renal with input "Cc1ccc(-c2cc(-c3cc4ccccc4nc3Cl)[nH]c(=O)n2)cc1" equals -22.6

growth for 786-0 renal with input "CC(C)NC(=O)c1cc(-c2ccc(NC(=O)Nc3ccc(N4CCN(C)CC4)c(C(F)(F)F)c3)cc2)nc2cccnc12" equals -93.8

growth for 786-0 renal with input "Cc1ccc(-c2nc(Nc3ccc(C)c(S(N)(=O)=O)c3)c3ccccc3n2)cc1" equals 33.7

growth for 786-0 renal with input "CC(=O)Nc1ccc(-c2cn(-c3cccc(C(=O)Nc4cc(CN5CCOCC5)cc(C(F)(F)F)c4)c3)nn2)cn1" equals -86

growth for 786-0 renal with input O=C1CCC(N2Cc3c(NCc4ccc(-c5ccccc5)cc4)cccc3C2=O)C(=O)N1 (centres undefined) equals 70.8

growth for 786-0 renal with input NC1=NC(c2ccccc2Cl)N=C(Nc2nn[nH]n2)N1 (centres undefined) equals 103

growth for 786-0 renal with input O=C(c1ccc(O)cc1)C1[C@H](c2ccccc2Br)[C@@H](c2ccccc2)NC12C(=O)Nc1ccc(Cl)cc12 (some centres undefined) equals 2.9

growth for 786-0 renal with input "COc1cc(/C=N/NC(=O)c2ccc3nc(-c4ccc(Cl)cc4)[nH]c3c2)cc(OC)c1OC" equals -4.1

growth for 786-0 renal with input "COc1ccc(C(=O)NC(=S)N2CCN(c3ncnc4c3cnn4-c3ccccc3)CC2)cc1" equals 82.8

growth for 786-0 renal with input "COc1ccc(C(=O)/C=C/c2cc(C(F)(F)F)cc(C(F)(F)F)c2)cc1S(N)(=O)=O" equals -69.2

growth for 786-0 renal with input "Cc1cccc(NC(=O)CSc2nc3ccc(F)cc3c(=O)n2-c2ccc(Cl)cc2)c1C" equals 34.7

====

Hi there, I'd appreciate the recorded growth for every entry that follows.
Test system: A498 renal
Test: NCI-60 one-dose screen, 48 h (100 = growth as untreated, 0 = no growth, -100 = all killed)
Settings: 10 µM
The panel holds about 83,000 compounds, 20% with a hit somewhere; the sample as a whole holds those more often.
Just the number please, in %, no unit attached.

For this compound ( "COc1cc(/C=N/NC(=O)c2ccc3nc(-c4ccc(Cl)cc4)[nH]c3c2)cc(OC)c1OC" ), measured growth is -31.1

For this compound ( "COc1cc(NC(=O)c2cc(-c3ccc(F)cc3F)ccc2O)cc(OC)c1OC" ), measured growth is -1.46

For this compound ( "CN1CCN(c2ccc(Nc3nc(NCCCNC(=O)C4CCCCC4)c4sccc4n3)cc2)CC1" ), measured growth is 144

For this compound ( "Clc1cccc(N/N=C/c2c[nH]c3ccccc23)n1" ), measured growth is 75.7

For this compound ( "O=C(CNc1nc(-c2ccccc2)cs1)Nc1ccc(Cl)cc1[N+](=O)[O-]" ), measured growth is 14.8

For this compound ( "CN(CCF)c1ccc(/C=C/C(=O)c2ccc(N)cc2O)cc1" ), measured growth is 115

For this compound ( "O=C(Nc1cc(Cl)cc(Cl)c1)Nc1cc(Cl)cc(Cl)c1" ), measured growth is -18.3

For this compound ( "COc1ccc(NC(=O)Nc2ccc(OCC(=O)N=Nc3c(O)[nH]c4ccc([N+](=O)[O-])cc34)cc2)cc1" ), measured growth is 101

For this compound ( "Cc1ccc([N+](=O)[O-])c(C(=O)Nc2ccc(-c3ccc4c(c3)NC(=O)/C4=C\c3ccc[nH]3)cc2)c1" ), measured growth is 134

For this compound ( "Cc1ccc(/C=C/C(=O)c2ccc(S(=O)(=O)NCCNc3nc(Nc4ccc(F)cc4)nc(N(C)C)n3)cc2)cc1" ), measured growth is 37.3

For this compound ( "COc1ccc2[nH]c(O)c(N=NC(=O)COc3ccc(NC(=O)Nc4ccc(Cl)cc4)cc3)c2c1" ), measured growth is 135

For this compound ( "Cc1ccc2nc3c(nc2c1)c1cc(I)ccc1n3CCN(C)C" ), measured growth is 62.9

For this compound ( "C=CCn1c(SCC(=O)Nc2ccc(C(=O)/C=C/c3ccccc3)cc2)nnc1-c1c[nH]c2ccccc12" ), measured growth is 109

For this compound ( "CN1CCN(c2ccc(C(=O)/C=C/c3ccc(C#N)cc3)cc2)CC1" ), measured growth is 103

For this compound ( "C#CCNC(=O)[C@]12CCC(C)(C)C[C@H]1C1=CC[C@@H]3[C@@](C)(CCC#N)[C@H](C(=C)C)CC[C@@]3(C)[C@]1(C)CC2" ), measured growth is 129

For this compound ( "O=C(Nc1ccc(Cl)c([N+](=O)[O-])c1)Nc1ccc(Cl)c([N+](=O)[O-])c1" ), measured growth is 20.1

For this compound ( CC1CC(c2ccc(N(C)C)cc2)=NN1c1nc(O)c(C2=c3cc(Br)ccc3=NC2=O)s1 (centres undefined) ), measured growth is 103

For this compound ( "CCCSc1nc(NC2CC2)c(C#N)c(-c2ccc(OC)cc2)n1" ), measured growth is 100

For this compound ( "COc1ccc(-c2nc(S(=O)(=O)c3ccc(C)cc3)c(S(=O)(=O)CC(=O)N(C)Cc3ccccc3)o2)cc1" ), measured growth is 132
